test: Inhibition of photosynthetic electron transport protein complex in Spinacia oleracea (spinach) leaf thylakoid membranes measured at 30 seconds intervals for 10 min
readout kind: IC50 (µM)

{"compound structure string": "CCc1ccc(/C=C2/C=C(Cc3ccccc3)C(=O)O2)cc1", "value operator": "=", "value measured": 9.1}
{"compound structure string": "O=C1O/C(=C\\c2ccccc2Cl)C=C1Cc1ccccc1", "value operator": "=", "value measured": 19.1}
{"compound structure string": "Cc1cccc(/C=C2/C=C(Cc3ccccc3)C(=O)O2)c1", "value operator": "=", "value measured": 73.8}
{"compound structure string": "COc1cc(OC)c(/C=C2\\C=C(Cc3ccccc3)C(=O)O2)c(OC)c1", "value operator": "=", "value measured": 12.7}
{"compound structure string": "O=C1O/C(=C\\c2cccc([N+](=O)[O-])c2)C=C1Cc1ccccc1", "value operator": "=", "value measured": 23.1}
{"compound structure string": "O=C1O/C(=C\\c2cccc(Br)c2)C=C1Cc1ccccc1", "value operator": "=", "value measured": 170}
{"compound structure string": "O=C1O/C(=C\\c2c(F)c(F)c(F)c(F)c2F)C=C1Cc1ccccc1", "value operator": "=", "value measured": 75.2}
{"compound structure string": "O=C1O/C(=C\\c2cccc(Cl)c2)C=C1Cc1ccccc1", "value operator": "=", "value measured": 44.7}
{"compound structure string": "O=C1O/C(=C\\c2cccc(F)c2)C=C1Cc1ccccc1", "value operator": "=", "value measured": 20.5}
{"compound structure string": "O=C1O/C(=C\\c2ccccc2Br)C=C1Cc1ccccc1", "value operator": "=", "value measured": 25.8}
{"compound structure string": "CN(C)c1ccc(/C=C2/C=C(Cc3ccccc3)C(=O)O2)c(Cl)c1", "value operator": ">", "value measured": 200}

###

In this section we review reported IC50 values for a set of compounds.
molecular target: Cytochrome b6-f complex subunit 4 (Spinacia oleracea, UniProt P00166); test: Inhibition of photosynthetic electron transport protein complex in Spinacia oleracea (spinach) leaf thylakoid membranes measured at 30 seconds intervals for 10 min
Sequence (P00166 whole entry, one chain of several): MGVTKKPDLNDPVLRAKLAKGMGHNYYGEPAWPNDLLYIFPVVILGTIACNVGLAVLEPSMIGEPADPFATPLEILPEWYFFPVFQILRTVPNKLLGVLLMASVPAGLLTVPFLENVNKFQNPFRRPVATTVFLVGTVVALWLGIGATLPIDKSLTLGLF

{"compound structure string": "N#Cc1cccc(/C=C2/C=C(Cc3ccccc3)C(=O)O2)c1", "IC50": "> 200 µM"}
{"compound structure string": "O=C1O/C(=C\\c2ccc(C(F)(F)F)cc2)C=C1Cc1ccccc1", "IC50": "8.3 µM"}
{"compound structure string": "O=C1O/C(=C\\c2ccccc2F)C=C1Cc1ccccc1", "IC50": "10.1 µM"}
{"compound structure string": "COc1ccc(/C=C2/C=C(Cc3ccccc3)C(=O)O2)cc1O", "IC50": "> 200 µM"}
{"compound structure string": "N#Cc1ccc(/C=C2/C=C(Cc3ccccc3)C(=O)O2)cc1", "IC50": "> 200 µM"}
{"compound structure string": "O=C1O/C(=C\\c2ccc(Br)cc2)C=C1Cc1ccccc1", "IC50": "> 200 µM"}
{"compound structure string": "O=C1O/C(=C\\c2ccc(-c3ccccc3)cc2)C=C1Cc1ccccc1", "IC50": "> 200 µM"}
{"compound structure string": "O=C1O/C(=C\\c2cccc(C(F)(F)F)c2)C=C1Cc1ccccc1", "IC50": "10 µM"}

###

target: Cytochrome b6-f complex subunit 4 (Spinacia oleracea); experiment: Inhibition of photosynthetic electron transport protein complex in Spinacia oleracea (spinach) leaf thylakoid membranes measured at 30 seconds intervals for 10 min
pIC50: −log10 of the molar value.
In this section we review reported pIC50 values for a set of compounds.

{"compound structure string": "Cc1ccccc1/C=C1/C=C(Cc2ccccc2)C(=O)O1", "value operator": "=", "pIC50": 4.63}
{"compound structure string": "O=C1O/C(=C\\c2ccccc2C(F)(F)F)C=C1Cc1ccccc1", "value operator": "=", "pIC50": 4.93}
{"compound structure string": "O=C1O/C(=C\\c2ccccc2O)C=C1Cc1ccccc1", "value operator": "<", "pIC50": 3.70}
{"compound structure string": "COc1ccc(OC)c(/C=C2/C=C(Cc3ccccc3)C(=O)O2)c1", "value operator": "=", "pIC50": 4.71}
{"compound structure string": "O=C1O/C(=C\\c2cccc(O)c2)C=C1Cc1ccccc1", "value operator": "<", "pIC50": 3.70}
{"compound structure string": "O=C1O/C(=C\\c2ccc(Cl)cc2)C=C1Cc1ccccc1", "value operator": "<", "pIC50": 3.70}
{"compound structure string": "O=C1O/C(=C\\c2ccc(O)cc2)C=C1Cc1ccccc1", "value operator": "<", "pIC50": 3.70}
{"compound structure string": "O=C1O/C(=C\\c2ccc3c(c2)OCO3)C=C1Cc1ccccc1", "value operator": "<", "pIC50": 3.70}
{"compound structure string": "Cc1ccc(/C=C2/C=C(Cc3ccccc3)C(=O)O2)cc1", "value operator": "<", "pIC50": 3.70}
{"compound structure string": "O=C1O/C(=C\\c2ccccc2)C=C1Cc1ccccc1", "value operator": "=", "pIC50": 4.71}
{"compound structure string": "O=C1O/C(=C\\c2ccc([N+](=O)[O-])cc2)C=C1Cc1ccccc1", "value operator": "=", "pIC50": 5.77}
{"compound structure string": "COc1ccc(/C=C2/C=C(Cc3ccccc3)C(=O)O2)cc1", "value operator": "=", "pIC50": 4.27}

###

In this section we review reported IC50 values for a set of molecules.
assay: Inhibition of photosynthetic electron transport protein complex in Spinacia oleracea (spinach) leaf thylakoid membranes measured at 30 seconds intervals for 10 min
readout kind: IC50

{"compound structure string": "CN(C)c1ccc(/C=C2/C=C(Cc3ccccc3)C(=O)O2)cc1", "value measured": "> 200 µM"}
{"compound structure string": "CN(C)c1cccc(/C=C2/C=C(Cc3ccccc3)C(=O)O2)c1", "value measured": "13.3 µM"}
{"compound structure string": "O=C1O/C(=C\\c2ccc(F)cc2)C=C1Cc1ccccc1", "value measured": "21.9 µM"}
